Target: T1, human CD131 (human, UniProt P32927 17-897)
T1 sequence: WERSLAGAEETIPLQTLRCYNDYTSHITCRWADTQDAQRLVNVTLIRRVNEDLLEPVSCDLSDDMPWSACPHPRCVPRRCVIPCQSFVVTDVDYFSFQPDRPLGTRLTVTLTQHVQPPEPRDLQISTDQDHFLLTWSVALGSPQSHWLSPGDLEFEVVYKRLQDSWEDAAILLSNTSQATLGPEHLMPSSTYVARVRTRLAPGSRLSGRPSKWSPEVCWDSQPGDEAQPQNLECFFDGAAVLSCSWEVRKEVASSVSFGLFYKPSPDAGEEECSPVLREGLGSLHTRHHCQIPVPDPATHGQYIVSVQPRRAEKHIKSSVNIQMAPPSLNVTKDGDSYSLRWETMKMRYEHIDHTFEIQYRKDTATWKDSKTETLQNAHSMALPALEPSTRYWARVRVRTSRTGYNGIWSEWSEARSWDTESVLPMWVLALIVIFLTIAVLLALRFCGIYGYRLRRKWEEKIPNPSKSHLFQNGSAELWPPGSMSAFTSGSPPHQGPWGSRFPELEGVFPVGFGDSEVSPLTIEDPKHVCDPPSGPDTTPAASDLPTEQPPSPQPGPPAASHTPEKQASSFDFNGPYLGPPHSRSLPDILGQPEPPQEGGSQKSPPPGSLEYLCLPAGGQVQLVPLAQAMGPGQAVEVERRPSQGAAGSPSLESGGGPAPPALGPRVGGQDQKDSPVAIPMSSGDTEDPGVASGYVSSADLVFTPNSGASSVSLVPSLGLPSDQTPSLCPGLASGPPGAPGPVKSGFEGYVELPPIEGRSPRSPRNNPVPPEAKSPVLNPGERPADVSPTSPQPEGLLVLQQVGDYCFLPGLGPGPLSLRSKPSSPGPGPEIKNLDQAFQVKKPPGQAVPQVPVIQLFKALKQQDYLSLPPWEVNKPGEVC
Assay: cell-based or functional assay
Measured parameter: IC50 GM-CSF, TF-1 proliferation (pM)
Give a bare numeral; the unit pM is implied.

The binder listed as 9A2-VR24.57 (antibody, V domains shown) VH: EVQLLESGGGLVQPGGSLRLSCAASGFTFPWYRVHWVRQAPGKGLEWVSSIRSSGGFTYYNPKVKHRFTISRDNSKNTLYLQMNSLRAEDTAVYYCARFYDSFFDIWGQGTMVTVSS VL: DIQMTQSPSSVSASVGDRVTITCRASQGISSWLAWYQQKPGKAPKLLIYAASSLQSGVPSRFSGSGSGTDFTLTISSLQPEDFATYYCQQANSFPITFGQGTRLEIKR has a reported IC50 GM-CSF, TF-1 proliferation of 330

The binder listed as 9A2-VR24.04 (antibody, V domains shown) VH: EVQLLESGGGLVQPGGSLRLSCAASGFTFPWYRVHWVRQAPGKGLEWVSSIHTHRHITYYADSVKGRFTISRDNSKNTLYLQMNSLRAEDTAVYYCARFYDSFFDIWGQGTMVTVSS VL: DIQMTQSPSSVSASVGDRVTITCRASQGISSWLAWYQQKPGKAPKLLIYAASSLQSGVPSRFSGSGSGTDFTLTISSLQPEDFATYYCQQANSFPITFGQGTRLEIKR has a reported IC50 GM-CSF, TF-1 proliferation of 700
